# MEASUREMENT DESCRIPTION: RP, Waters ACQUITY Premier BEH C18, 100 × 2.1 mm, 1.7 µm, 40 °C, 0.3 to 0.4 mL/min, estimated dead time 0.73 min; A: water + 0.1% formic acid; B: acetonitrile + 0.1% formic acid; gradient (min/%B) 0/0.5 0.1/0.5 10/80 10.1/99.5 12/0.5 12.1/0.5 14.5/0.5
# EXPERIMENTAL PARAMETERS: stereoisomer not certain
RECORDED METRIC: LC retention time (min)

Known results for molecules:
{"MOLECULE": "O=C(OC1OC2COC(=O)c3cc(O)c(O)c(O)c3-c3c(cc(O)c(O)c3O)C(=O)OC(C2O)C1O)c1cc(O)c(O)c(O)c1 (centres undefined) [CORILAGIN]", "RECORDED METRIC": "LC retention time", "READING UNIT": "min", "ASSAY RESULT": 4.37}
{"MOLECULE": "CC(=O)OC(CC(=O)O)C[N+](C)(C)C (centres undefined) [O-ACETYLCARNITINE]", "RECORDED METRIC": "LC retention time", "READING UNIT": "min", "ASSAY RESULT": 1.48}

I. C=C1C(=O)OC2C=C(C)CCC=C(C)CCC12 (centres undefined) [COSTUNOLIDE]
II. NC(=O)NCCC(=O)O [UREIDOPROPIONATE]
Of I and II , which one carries the higher reported LC retention time? State the label of the item chosen.
I
(I: 7.65 min, II: 1.27 min)
